Test system: TK-10
Measurement notes: GI50 of drug in presence of dasatinib; higher = less potent
Assay context: treatment: drug + dasatinib (fixed dose, not stated); 5 days
Lab note - cut at 1000 nM for GI50 of drug: 1 if strictly below, -1 if not.

Consider the following illustrative entries.
{"Compound": "CNC(=O)c1ccccc1Sc1ccc2c(/C=C/c3ccccn3)n[nH]c2c1 [Axitinib] + Cc1nc(Nc2ncc(C(=O)Nc3c(C)cccc3Cl)s2)cc(N2CCN(CCO)CC2)n1", "Class assignment": -1}
{"Compound": "CS(=O)c1ccc(-c2nc(-c3ccc(F)cc3)c(-c3ccncc3)[nH]2)cc1 (centres undefined) + Cc1nc(Nc2ncc(C(=O)Nc3c(C)cccc3Cl)s2)cc(N2CCN(CCO)CC2)n1", "Class assignment": -1}
{"Compound": "COc1cc2c(Oc3ccc(NC(=O)C4(C(=O)Nc5ccc(F)cc5)CC4)cc3F)ccnc2cc1OCCCN1CCOCC1 + Cc1nc(Nc2ncc(C(=O)Nc3c(C)cccc3Cl)s2)cc(N2CCN(CCO)CC2)n1", "Class assignment": 1}
{"Compound": "Cl.Cl.Fc1cc(-c2cccc3ncc(-c4cnn(C5CCNCC5)c4)nc23)cc(F)c1CN1CCOCC1 [NVP-BSK805] + Cc1nc(Nc2ncc(C(=O)Nc3c(C)cccc3Cl)s2)cc(N2CCN(CCO)CC2)n1", "Class assignment": -1}
{"Compound": "COc1ccc2c(OCc3nnc4ccc(-c5ccccc5)nn34)ccnc2c1 [AMG-208] + Cc1nc(Nc2ncc(C(=O)Nc3c(C)cccc3Cl)s2)cc(N2CCN(CCO)CC2)n1", "Class assignment": -1}
{"Compound": "Br.Cc1ccc(C(=O)Cn2c3c(sc2=N)CCCC3)cc1 [Pifithrin-α] + Cc1nc(Nc2ncc(C(=O)Nc3c(C)cccc3Cl)s2)cc(N2CCN(CCO)CC2)n1", "Class assignment": -1}

Q: API: query returns whether the compound falls strictly under 1000 nM in GI50 of drug. Query: CCC[C@H](NC(=O)/C(C#N)=C/c1cccc(Br)n1)c1ccccc1 [WP1130] + Cc1nc(Nc2ncc(C(=O)Nc3c(C)cccc3Cl)s2)cc(N2CCN(CCO)CC2)n1
A: -1

Q: Then O=C1NC(=O)/C(=C/c2ccc3nccc(-c4ccncc4)c3c2)S1 + Cc1nc(Nc2ncc(C(=O)Nc3c(C)cccc3Cl)s2)cc(N2CCN(CCO)CC2)n1 ?
A: 1

Q: Now the compound O=C(O)[C@]1(Cc2cccc(Nc3nccs3)n2)CC[C@@H](Oc2cccc(Cl)c2F)CC1 [MK-5108 (VX-689)] + Cc1nc(Nc2ncc(C(=O)Nc3c(C)cccc3Cl)s2)cc(N2CCN(CCO)CC2)n1
A: -1

----------
Tested on: SN12C
Measurement notes: minimum viability across doses, drug + dasatinib, relative to DMSO (fraction); higher = less growth inhibition
Assay context: treatment: drug + dasatinib (fixed dose, not stated); 5 days
Note to self: minimum viability across doses under 0.6 means 1, ties and anything higher get -1.

Example entries begin here.
{"Compound": "Cc1cc(C(C)Nc2ccccc2)c2nc(N3CCOCC3)cc(=O)n2c1 (stereo not given) [TGX-221] + Cc1nc(Nc2ncc(C(=O)Nc3c(C)cccc3Cl)s2)cc(N2CCN(CCO)CC2)n1 [dasatinib]", "Class assignment": -1}
{"Compound": "OCCn1cc(-c2ccc3c(c2)CC/C3=N\\O)c(-c2ccncc2)n1 [GDC-0879] + Cc1nc(Nc2ncc(C(=O)Nc3c(C)cccc3Cl)s2)cc(N2CCN(CCO)CC2)n1 [dasatinib]", "Class assignment": -1}
{"Compound": "O=C1c2ccccc2-c2n[nH]c3cccc1c23 + Cc1nc(Nc2ncc(C(=O)Nc3c(C)cccc3Cl)s2)cc(N2CCN(CCO)CC2)n1 [dasatinib]", "Class assignment": -1}
{"Compound": "O=C(NC1CCNCC1)c1n[nH]cc1NC(=O)c1c(Cl)cccc1Cl [AT7519] + Cc1nc(Nc2ncc(C(=O)Nc3c(C)cccc3Cl)s2)cc(N2CCN(CCO)CC2)n1 [dasatinib]", "Class assignment": 1}

Okay, next one:
Q: Find out if reported minimum viability across doses for C[C@@H](N)[C@H]1CC[C@H](C(=O)Nc2ccncc2)CC1.Cl.Cl + Cc1nc(Nc2ncc(C(=O)Nc3c(C)cccc3Cl)s2)cc(N2CCN(CCO)CC2)n1 [dasatinib] is less than 0.6
A: -1
